Value source: ChEMBL document CHEMBL1201862

Test system: T47D
Assay: NCI tumour cell line growth inhibition, 48 h
Activity calls are given as the source filed them. Rule as the data show it: active = GI50 up to about 1.1 µM and inactive = higher.
Outcome codes: active, inactive

{"columns": ["compound", "assay system", "category"],
 "data": [
  ["COc1ccc(C2c3cc4c(cc3OC(N3CCOCC3)C2C)OCO4)c(OC)c1OC (stereo unspecified)", "T47D", "inactive"],
  ["Nc1nc(Cl)c(N)c(NCC2(CO)CCCC2)n1", "T47D", "active"],
  ["Fc1ccccc1C1SCC2=Nc3ccccc3CN21 (stereo unspecified)", "T47D", "inactive"],
  ["CC1(C)CC(=O)c2[nH]c3ccccc3c2CC(=O)NCCc2cn1cn2", "T47D", "inactive"],
  ["CN(CCCN=C=S)CCCN1c2ccccc2CCc2ccccc21", "T47D", "inactive"],
  ["CCCSc1ccc2[nH]c(N3C(=O)/C(=C/c4ccc(SC)cc4)N=C3c3ccccc3)cc2c1", "T47D", "inactive"]
]}

----------
Test system: Malme-3M
Assay: NCI tumour cell line growth inhibition, 48 h
Active and inactive are the calls of the source. Rule as the data show it: active = GI50 up to about 1.1 µM and inactive = higher.
Outcome codes: t for active, f for inactive

{"columns": ["compound", "assay system", "category"],
 "data": [
  ["Cn1c2ccccc2c2c3c(c4c5ccccc5n(C)c4c21)C(=O)c1ccccc1C3=O", "Malme-3M", "f"],
  ["CC12CN(CC[N+](C)(C)C)CC1(C)C1CCC2O1 (stereo not given)", "Malme-3M", "f"],
  ["c1ccc([B-]2(c3ccccc3)OCCc3cccc[n+]32)cc1", "Malme-3M", "f"],
  ["O=c1c2ccccc2n2n1CC(O)C2 (stereo not given)", "Malme-3M", "f"],
  ["CC(C)n1c(=O)n(-c2ccccc2)n(C(C)(C)C)c1=O", "Malme-3M", "f"],
  ["O=C1CC2(CCNCC2)C(=O)N1N1CCOCC1", "Malme-3M", "f"],
  ["CC(C)(C)OC(=O)NCCC(=O)NC1(c2cc3ccccc3s2)CCCCC1", "Malme-3M", "f"],
  ["O=C(Nc1ccccc1)c1cc(S(=O)(=O)NC2=Nc3ccc(Cl)cc3C(c3ccccc3)N2)c(SSc2cc(Cl)c(C(=O)Nc3ccccc3)cc2S(=O)(=O)NC2=Nc3ccc(Cl)cc3C(c3ccccc3)N2)cc1Cl (stereo not given)", "Malme-3M", "f"],
  ["CC(C)(C)c1cc(Cc2ccc(S(C)(=O)=O)cc2)c(O)c(C(C)(C)C)c1", "Malme-3M", "f"],
  ["COC(=O)CCC(=O)CC(=O)C1=NS(=O)(=O)c2nc(S(N)(=O)=O)c(Cl)cc2N1", "Malme-3M", "f"],
  ["CC1(C)CC[C@]2(C(=O)O)CC[C@]3(C)[C@H](C(=O)C=C4[C@@]5(C)C=C(C#N)C(=O)C(C)(C)[C@@H]5CC[C@]43C)[C@@H]2C1", "Malme-3M", "t"],
  ["CCOC(=O)C1(N)CCc2[nH][nH]c(=O)c2C1 (stereo not given)", "Malme-3M", "f"],
  ["Cc1ccc(N2CCC3(CC2)OCCO3)cc1", "Malme-3M", "f"],
  ["NCc1ccc(-c2ccc(-c3ccc(-c4ccc(CN)s4)s3)s2)s1", "Malme-3M", "f"],
  ["CC(C)/C(Cl)=N\\OC(NC(=O)P(=O)(c1ccccc1)c1ccccc1)(C(F)(F)F)C(F)(F)F", "Malme-3M", "f"],
  ["O=C1N[C@H]2c3c(Cl)sc(Cl)c3/C(=N/O)[C@H]2O1", "Malme-3M", "f"],
  ["CCN(CC)C1Oc2cc3c(cc2C(c2ccc(OC)cc2)C1C)OCO3 (stereo not given)", "Malme-3M", "f"],
  ["Cc1ccc(/C=N/n2c(Cc3ccccc3)n[nH]c2=O)cc1", "Malme-3M", "f"],
  ["Cc1nc(Nc2ccc(Cl)c(Cl)c2)sc1C(=O)/C=C/c1ccc2c(c1)OCO2", "Malme-3M", "f"],
  ["CC1(C)CC(=O)c2[nH]c3ccccc3c2CC(=O)NCCc2cn1cn2", "Malme-3M", "f"]
]}
